// compounds with reported pKi on P2Y purinoceptor 1 (Homo sapiens), multi-publication
Sequence (P47900 whole entry): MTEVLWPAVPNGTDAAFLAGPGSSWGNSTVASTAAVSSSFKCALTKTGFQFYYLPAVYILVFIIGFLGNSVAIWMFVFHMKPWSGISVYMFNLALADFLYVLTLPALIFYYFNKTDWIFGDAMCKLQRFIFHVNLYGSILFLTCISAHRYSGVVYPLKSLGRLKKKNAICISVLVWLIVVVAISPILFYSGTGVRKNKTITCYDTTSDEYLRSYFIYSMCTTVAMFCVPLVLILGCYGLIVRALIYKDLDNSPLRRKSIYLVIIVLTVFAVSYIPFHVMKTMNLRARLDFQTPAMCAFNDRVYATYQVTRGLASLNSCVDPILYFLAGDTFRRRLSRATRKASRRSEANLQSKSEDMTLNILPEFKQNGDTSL
Answers are plain numbers, as −log10 of the molar value.

Solved entries (count: 5):
CC(C)(C)c1ccccc1Oc1ncccc1Nc1noc(-c2ccccc2)n1 :: 6.39
O=C(Nc1ccc(OC(F)(F)F)cc1)Nc1ccccc1N1CC2(CCNCC2)c2ccccc21 :: 5.35
CC1(C)CCN(c2ncccc2NC(=O)Nc2ccc(OC(F)(F)F)cc2)c2ccccc21 :: 7.80
CC(C)(C)c1ccccc1Oc1ncccc1Nc1nc(C(F)(F)F)c(-c2cccc(O)c2)s1 :: 6.71
CNc1ncnc2c1ncn2[C@H]1C[C@H](OP(=O)(O)O)[C@]2(COP(=O)(O)O)C[C@H]12 :: 7.75

Working through the 2 compounds below one at a time, give pKi for each.
1. O=C(Nc1ccc(OC(F)(F)F)cc1)Nc1ccccc1N1CC2(CC2)c2ccccc21
2. CC(C)(C)c1ccccc1Oc1ncccc1Nc1nnc(-c2ccccc2)o1

## Output
1. 7.59
2. 7.15
